test: In vivo pharmacokinetic analysis; conditions: ICR, mouse; mice, 5 mg/kg, oral gavage in 0.5% CMC, plasma
Measurement type: MRT (h)

Some solved cases for reference:
{"Compound": "COC1=CC(=O)N(NC(=O)/C=C\\n2cnc(-c3cc(C(F)(F)F)cc(C(F)(F)F)c3)n2)C1 [Compound 79]", "MRT / h": 5.89}
{"Compound": "O=C(/C=C\\n1cnc(-c2cc(C(F)(F)F)cc(C(F)(F)F)c2)n1)NN1CCCC1=O [Compound 2]", "MRT / h": 6.59}
{"Compound": "O=C(/C=C\\n1cnc(-c2cc(C(F)(F)F)cc(C(F)(F)F)c2)n1)NNc1cnccn1 [KPT-330, Selinexor, reference compound]", "MRT / h": 6.94}
{"Compound": "O=C(/C=C\\n1cnc(-c2cc(C(F)(F)F)cc(C(F)(F)F)c2)n1)NN1CCC2(CC2)C1=O [Compound 18]", "MRT / h": 6.17}
{"Compound": "O=C(/C=C\\n1cnc(-c2cc(C(F)(F)F)cc(C(F)(F)F)c2)n1)NN1C(=O)[C@@H]2CC[C@H]1C2 [Compound 33]", "MRT / h": 6.76}

P = O=C(/C=C\n1cnc(-c2cc(C(F)(F)F)cc(C(F)(F)F)c2)n1)NN1CCOCC1=O [Compound 38]
Q = CC1=C(C)C(=O)N(NC(=O)/C=C\n2cnc(-c3cc(C(F)(F)F)cc(C(F)(F)F)c3)n2)C1 [Compound 5]
From the items above, decide which of P and Q has the lower MRT reading. Provide the label of your selected option as the answer.
Q

----------
Tested on: BxPC-3 xenografts
Assay: Anti-tumor growth efficacy in pancreatic tumor BxPC3 nude mice xenograft model
Type: in vivo
Conditions: D21; oral: KPT-330 and 38 10 mg/kg tiw, 79 2.5 mg/kg tiw, 62 10 mg/kg qd
Procedure: BxPC-3 cells were cultured in 1640 medium containing 10% FBS at 37° C. and 5% CO2, 8×10^6 BxPc-3 cells were implanted subcutaneously into the left armpit of 40 nude mice. […] Tumor volume and body weight were measured every other day. Mice were sacrificed on day 21, and tumor and terminal body weight were recorded. The relative tumor volume, percent treatment/control values and tumor growth inhibition were calculated and statistics was performed.
Recorded Tumor volume D21 by entry
Numbers only here, please. The scale is mm^3.

Some solved cases for reference:
{"Compound": "O=C(/C=C\\n1cnc(-c2cc(C(F)(F)F)cc(C(F)(F)F)c2)n1)NN1CCOCC1=O", "Tumor volume D21, mm^3": 149.62}
{"Compound": "COC1=CC(=O)N(NC(=O)/C=C\\n2cnc(-c3cc(C(F)(F)F)cc(C(F)(F)F)c3)n2)C1", "Tumor volume D21, mm^3": 126.90}
{"Compound": "CN1C(=O)CCN1C(=O)/C=C\\n1cnc(-c2cc(C(F)(F)F)cc(C(F)(F)F)c2)n1", "Tumor volume D21, mm^3": 152.32}

Continue with the compound presented below.
What value of Tumor volume D21 has been reported for the following compound? O=C(/C=C\n1cnc(-c2cc(C(F)(F)F)cc(C(F)(F)F)c2)n1)NNc1cnccn1 [KPT-330, Selinexor, reference compound]
151.31

----------
tested on: MDA-MB-231 cells (breast cancer cells); assay: Cancer cell proliferation assay, MDA-MB-231; type: cell-based; conditions: Homo sapiens, MDA-MB-231, 72 h; three days incubation, absorbance 570 nm; read-out: IC50 (μM) MDA-MB-231
Measurement type: IC50 (µM)

Some solved cases for reference:
{"Compound": "O=C(/C=C\\n1cnc(-c2cc(C(F)(F)F)cc(C(F)(F)F)c2)n1)NN1CC[C@H](O)C1=O", "Assayed system": "MDA-MB-231 cells (breast cancer cells)", "Reading unit": "µM", "IC50": 0.519}
{"Compound": "O=C(/C=C\\n1cnc(-c2cc(C(F)(F)F)cc(C(F)(F)F)c2)n1)N1CCCN1C(=O)C1CC1", "Assayed system": "MDA-MB-231 cells (breast cancer cells)", "Reading unit": "µM", "IC50": 0.487}

a = O=C(/C=C\n1cnc(-c2cc(C(F)(F)F)cc(C(F)(F)F)c2)n1)NN1C(=O)[C@H]2CC[C@@H]1C2
b = CN1C(=O)CCN1C(=O)/C=C\n1cnc(-c2cc(C(F)(F)F)cc(C(F)(F)F)c2)n1
c = O=C(/C=C\n1cnc(-c2cc(C(F)(F)F)cc(C(F)(F)F)c2)n1)NN1CC(O)CC1=O (stereo not drawn)
d = CCC1=C(C)CN(NC(=O)/C=C\n2cnc(-c3cc(C(F)(F)F)cc(C(F)(F)F)c3)n2)C1=O
Place the items in sequence of falling IC50. Your reply should list the labels following the order given in the request.
c, d, a, b

Value source: patent US11286247B2
